Molecular target: Adrenergic receptor alpha-1 (Rattus norvegicus, UniProt P15823+P23944+P43140)
Sequence (P15823 whole entry): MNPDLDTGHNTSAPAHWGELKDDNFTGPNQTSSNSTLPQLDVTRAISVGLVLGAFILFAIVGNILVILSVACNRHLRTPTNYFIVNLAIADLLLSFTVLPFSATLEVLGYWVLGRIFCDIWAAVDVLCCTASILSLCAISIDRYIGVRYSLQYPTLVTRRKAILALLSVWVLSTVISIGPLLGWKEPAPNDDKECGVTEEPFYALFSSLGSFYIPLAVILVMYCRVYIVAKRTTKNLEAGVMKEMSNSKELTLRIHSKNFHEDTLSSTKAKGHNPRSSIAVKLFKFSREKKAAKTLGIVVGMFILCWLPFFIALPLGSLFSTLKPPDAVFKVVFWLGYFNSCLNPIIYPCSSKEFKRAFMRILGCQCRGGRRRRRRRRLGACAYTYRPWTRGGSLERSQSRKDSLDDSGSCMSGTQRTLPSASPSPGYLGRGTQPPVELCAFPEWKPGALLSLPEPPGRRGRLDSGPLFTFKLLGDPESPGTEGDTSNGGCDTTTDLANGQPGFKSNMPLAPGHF
Sequence (P23944 whole entry): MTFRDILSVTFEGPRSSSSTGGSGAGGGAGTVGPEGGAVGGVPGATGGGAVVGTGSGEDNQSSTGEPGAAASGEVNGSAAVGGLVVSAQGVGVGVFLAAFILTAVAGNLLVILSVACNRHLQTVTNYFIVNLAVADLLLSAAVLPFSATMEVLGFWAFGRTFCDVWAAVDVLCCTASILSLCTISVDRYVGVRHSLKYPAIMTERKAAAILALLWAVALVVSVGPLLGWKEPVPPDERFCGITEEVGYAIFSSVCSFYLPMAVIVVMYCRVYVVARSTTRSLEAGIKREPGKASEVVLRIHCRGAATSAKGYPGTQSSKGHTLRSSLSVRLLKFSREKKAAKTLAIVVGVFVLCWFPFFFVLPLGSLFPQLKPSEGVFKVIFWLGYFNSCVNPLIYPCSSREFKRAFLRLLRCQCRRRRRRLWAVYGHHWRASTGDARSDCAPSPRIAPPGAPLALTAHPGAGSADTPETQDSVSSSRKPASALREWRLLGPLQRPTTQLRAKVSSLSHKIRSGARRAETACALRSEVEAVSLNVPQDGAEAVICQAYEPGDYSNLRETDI
Sequence (P43140 whole entry): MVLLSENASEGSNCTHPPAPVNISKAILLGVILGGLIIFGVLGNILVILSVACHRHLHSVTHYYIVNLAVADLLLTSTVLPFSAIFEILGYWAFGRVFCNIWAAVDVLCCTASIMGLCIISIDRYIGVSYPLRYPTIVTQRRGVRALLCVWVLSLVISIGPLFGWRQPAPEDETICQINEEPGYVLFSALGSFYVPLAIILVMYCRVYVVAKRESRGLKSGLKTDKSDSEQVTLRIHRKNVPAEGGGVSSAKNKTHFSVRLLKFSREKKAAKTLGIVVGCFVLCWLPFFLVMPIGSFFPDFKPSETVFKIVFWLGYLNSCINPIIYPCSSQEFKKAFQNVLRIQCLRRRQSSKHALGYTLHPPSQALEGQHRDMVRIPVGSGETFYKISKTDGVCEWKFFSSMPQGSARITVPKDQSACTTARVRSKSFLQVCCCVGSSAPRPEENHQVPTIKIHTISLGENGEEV
Experiment: Binding affinity towards alpha-1 adrenergic receptor using [3H]prazosin radioligand.
Assay type: protein assay
Please go through the items and note down their Ki.
Answers are plain numbers, in nM.

Would you please look over these solved cases?
> print(dat)
                                   compound  unit.abbreviation  quantitative.result
1  COc1ccccc1N1CCN(CCCCN2C(=O)C3CCCN3C2=O)CC1 (configuration not stated)                 nM                  8.3
2  O=C1C2CCCN2C(=O)N1CCN1CCN(c2cccc(Cl)c2)CC1 (configuration not stated)                 nM                  500
3  O=C1C2CCCCN2C(=O)N1CCN1CCN(c2cccc(Cl)c2)CC1 (configuration not stated)                 nM                  375
4  O=C1C2CCCCN2C(=O)N1CCCN1CCN(c2cccc(C(F)(F)F)c2)CC1 (configuration not stated)                 nM                 90.4
5  O=C1C2CCCN2C(=O)N1CN1CCN(c2ccccc2)CC1 (configuration not stated)                 nM                 1000

Give measured Ki for every item shown.
1. O=C1C2CCCCN2C(=O)N1CCCN1CCN(c2ccccc2)CC1 (configuration not stated)
2. COc1ccccc1N1CCN(CN2C(=O)C3CCCN3C2=O)CC1 (configuration not stated)
3. COc1ccccc1N1CCN(CCCN2C(=O)C3CCCCN3C2=O)CC1 (configuration not stated)
4. O=C1C2CCCN2C(=O)N1CCCCN1CCN(c2ccccc2)CC1 (configuration not stated)
5. O=C1C2CCCN2C(=O)N1CCCCN1CCN(c2ccc([N+](=O)[O-])cc2)CC1 (configuration not stated)
6. COc1ccccc1N1CCN(CCN2C(=O)C3CCCN3C2=O)CC1 (configuration not stated)

1. 11.4
2. 500
3. 9.9
4. 26.4
5. 247
6. 190

Give measured Ki for every item shown.
1. O=C1C2CCCCN2C(=O)N1CCCCN1CCN(c2ccccc2)CC1 (configuration not stated)
2. O=C1C2CCCCN2C(=O)N1CN1CCN(c2cccc(Cl)c2)CC1 (configuration not stated)

18.6
135

All figures here come from ChEMBL document CHEMBL1129734.
